- assay.system: Peroxisome proliferator-activated receptor gamma (Homo sapiens) (UniProt P37231)
- Sequence (P37231 whole entry, looked up): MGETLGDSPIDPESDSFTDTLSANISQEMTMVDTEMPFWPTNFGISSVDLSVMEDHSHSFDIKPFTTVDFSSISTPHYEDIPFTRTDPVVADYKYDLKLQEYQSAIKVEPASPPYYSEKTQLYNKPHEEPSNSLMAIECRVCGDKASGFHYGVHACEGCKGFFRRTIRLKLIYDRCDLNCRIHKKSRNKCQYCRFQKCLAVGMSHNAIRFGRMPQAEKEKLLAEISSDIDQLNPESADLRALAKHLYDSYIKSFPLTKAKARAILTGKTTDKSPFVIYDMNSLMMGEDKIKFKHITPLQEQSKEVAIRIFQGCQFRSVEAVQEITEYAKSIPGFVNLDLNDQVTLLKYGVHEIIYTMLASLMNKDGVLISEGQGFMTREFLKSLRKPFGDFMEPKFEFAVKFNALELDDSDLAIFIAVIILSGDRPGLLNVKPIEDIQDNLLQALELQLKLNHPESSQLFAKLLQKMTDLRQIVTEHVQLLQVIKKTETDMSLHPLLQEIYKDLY
- protocol.summary: qHTS assay for small molecule antagonists of peroxisome proliferator-activated receptor gamma signaling (AID 588537);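 further: reporter cells co-stimulated with 50 nM rosiglitazone agonist during compound treatment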
- conditions: HEK293 PPARg-UAS-bla, beta-lactamase ratio, antagonist mode; series mostly up to 76.8 µM
Inconclusive results are not listed. The source made the active and inactive calls. The call rests on the fitted dose curve; in most records, active means well fitted inhibition curve with a large enough effect in the signal ratio, with a control signal flat (not every such curve was filed as active); inconclusive means small, poorly fitted or top-dose-only effect, or effect the other way, or a change in a side signal; inactive means flat fitted curve, though single readings scatter; the % refers to the signal ratio.
readout.kind: outcome

{"compound.smiles": "NNC(=O)c1ccncc1", "test.value": "inactive"}
{"compound.smiles": "O=C(N[C@H](CO)[C@H](O)c1ccc([N+](=O)[O-])cc1)C(Cl)Cl", "test.value": "inactive"}
{"compound.smiles": "NC(N)=NC(N)=NCCc1ccccc1", "test.value": "inactive"}
{"compound.smiles": "N[C@@H](Cc1ccc(O)c(O)c1)C(=O)O", "test.value": "inactive"}
{"compound.smiles": "Cc1noc(NS(=O)(=O)c2ccc(N)cc2)c1C", "test.value": "inactive"}
